Molecular target: Aβ25-35 (Homo sapiens, UniProt P05067)
Construct: Gly1 and Phe1 for insulin) and C-terminals (Met35 for Aβ25-35; purchased Sigma-Aldrich
Assay: Aβ25-35 self-aggregation assay (thioflavin-T fluorescence)
Assay type: biochemical
Procedure: A monomeric Aβ25-35 solution was prepared using the method of Naldi and coworkers. A 2.5 μL aliquot of various concentrations of the tested phlorotannins in 50 mM phosphate buffer (pH 7.4) with 100 mM NaCl was added to 72.5 μL of Aβ25-35 sample (100 μM), and the mixture was incubated at 4 °C for 1 day. […] Fluorescence emission intensity was monitored at 490 nm (λexc = 446 nm) using a fluorescence microplate reader (Gemini XPS, Molecular Devices, Sunnyvale, CA, USA).
quantity.name: IC50 (µM)
The reply should contain only the number, in µM.

Prompt line: Specify reported IC50 for the compound shown: Oc1cc(O)c2oc3cc(O)c4oc5cc(O)cc(O)c5oc4c3oc2c1 [Dioxinodehydroeckol, dioxinodehydroeckol]
Response line: 8.31

---

Molecular target: bovine insulin (Bos taurus, UniProt P01317)
Construct: Phe1 and Asn3 in chain B and Ser12, Gln15, Glu17, and Asn18 in chain A of the insulin; purchased Sigma-Aldrich; host or cells: bovine pancreas
Sequence (P01317 25-54 limits assumed): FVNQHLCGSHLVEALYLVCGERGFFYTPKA
Sequence (P01317 85-105 limits assumed): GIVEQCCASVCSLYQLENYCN
Assay: D-glucose-induced non-enzymatic insulin glycation assay
Format: biochemical
pIC50: −log10 of the molar value.
quantity.name: pIC50

Prompt line: Give pIC50 for Oc1cc(O)c2oc3cc(O)c4oc5cc(O)cc(O)c5oc4c3oc2c1 [Dioxinodehydroeckol, dioxinodehydroeckol] tested on bovine insulin (Bos taurus, UniProt P01317).
Response line: < 4.00

---

Molecular target: Aβ25-35 (Homo sapiens, UniProt P05067)
Construct: Gly1 and Phe1 for insulin) and C-terminals (Met35 for Aβ25-35; purchased Sigma-Aldrich
Test: Aβ25-35 self-aggregation assay (thioflavin-T fluorescence)
Format: biochemical
Details: thioflavin-T fluorescence, Aβ25-35 100 μM, mean ± SD, n = 3; read-out: IC50 Aβ25-35 Aggregation
I'd be grateful if you could share measured IC50 for these entries.
The reply should contain only the number, in µM.

Prompt line: Specify reported IC50 for the molecule shown: Oc1cc(O)cc(Oc2c(O)cc(O)c3c2Oc2c(O)cc(O)cc2O3)c1 [Eckol, eckol]
Response line: 34.4

Prompt line: Specify reported IC50 for the molecule shown: Oc1cc(O)cc(Oc2c(O)cc(O)c3c2Oc2c(O)cc(Oc4c(O)cc(Oc5c(O)cc(O)c6c5Oc5c(O)cc(O)cc5O6)cc4O)cc2O3)c1 [Dieckol, dieckol]
Response line: 7.93

Prompt line: Specify reported IC50 for the molecule shown: Oc1cc(O)cc(Oc2c(O)cc(O)c3c2Oc2c(O)cc4oc5c(Oc6cc(O)cc(O)c6)c(O)cc(O)c5c4c2O3)c1 [Phlorofucofuroeckol-A, phlorofucofuroeckol-A]
Response line: 6.18

---

Target: bovine insulin (Bos taurus)
Construct: Phe1 and Asn3 in chain B and Ser12, Gln15, Glu17, and Asn18 in chain A of the insulin; purchased Sigma-Aldrich; host or cells: bovine pancreas
Assay: D-ribose-induced non-enzymatic insulin glycation assay
Type: biochemical
Details: bovine insulin, D-ribose, mean ± SD, n = 3; read-out: IC50 D-Ribose-Induced Insulin Glycation
I'd be grateful if you could share measured IC50 for these entries.
The reply should contain only the number, in µM.

Prompt line: Specify reported IC50 for the molecule shown: `Oc1cc(O)cc(Oc2c(O)cc(O)c3c2Oc2c(O)cc4oc5c(Oc6cc(O)cc(O)c6)c(O)cc(O)c5c4c2O3)c1`
Response line: 29.5

Prompt line: Specify reported IC50 for the molecule shown: `Oc1cc(O)cc(Oc2c(O)cc(O)c3c2Oc2c(O)cc(O)cc2O3)c1`
Response line: 259

Prompt line: Specify reported IC50 for the molecule shown: `Oc1cc(O)cc(Oc2c(O)cc(O)c3c2Oc2c(O)cc(Oc4c(O)cc(Oc5c(O)cc(O)c6c5Oc5c(O)cc(O)cc5O6)cc4O)cc2O3)c1`
Response line: 63.7

---

Biological target: bovine insulin (Bos taurus, UniProt P01317)
Construct: Phe1 and Asn3 in chain B and Ser12, Gln15, Glu17, and Asn18 in chain A of the insulin; purchased Sigma-Aldrich; host or cells: bovine pancreas
Experiment: D-glucose-induced non-enzymatic insulin glycation assay
Format: biochemical
Settings: bovine insulin, D-glucose, 2 weeks incubation, mean ± SD, n = 3; read-out: IC50 D-Glucose-Induced Insulin Glycation
From the text: Glycated bovine insulin was observed by fluorescence spectroscopy because AGEs are marked by a typical fluorescence emission at 410 nm (excitation at 320 nm). To verify our experimental condition, we used vanillin as a negative control for D-ribose-induced protein glycation and rutin as a positive control for d-glucose-induced protein glycation. […]
I'd be grateful if you could share measured IC50 for these entries.
The reply should contain only the number, in µM.

Prompt line: Specify reported IC50 for the molecule shown: C[C@@H]1O[C@@H](OC[C@H]2O[C@@H](Oc3c(-c4ccc(O)c(O)c4)oc4cc(O)cc(O)c4c3=O)[C@H](O)[C@@H](O)[C@@H]2O)[C@H](O)[C@H](O)[C@H]1O [Rutin, rutin, reference compound]
Response line: 5.19

Prompt line: Specify reported IC50 for the molecule shown: `Oc1cc(O)cc(Oc2c(O)cc(O)c3c2Oc2c(O)cc4oc5c(Oc6cc(O)cc(O)c6)c(O)cc(O)c5c4c2O3)c1`
Response line: 43.5

---

Target: bovine insulin (Bos taurus, UniProt P01317)
Construct: Phe1 and Asn3 in chain B and Ser12, Gln15, Glu17, and Asn18 in chain A of the insulin; purchased Sigma-Aldrich; host or cells: bovine pancreas
Assay: D-ribose-induced non-enzymatic insulin glycation assay
Assay type: biochemical
quantity.name: IC50

Prompt line: Specify reported IC50 for the molecule shown: Oc1cc(O)c2oc3cc(O)c4oc5cc(O)cc(O)c5oc4c3oc2c1 [Dioxinodehydroeckol, dioxinodehydroeckol]
Response line: > 100 µM

---

Biological target: bovine insulin (Bos taurus, UniProt P01317)
Construct: Phe1 and Asn3 in chain B and Ser12, Gln15, Glu17, and Asn18 in chain A of the insulin; purchased Sigma-Aldrich; host or cells: bovine pancreas
Experiment: D-glucose-induced non-enzymatic insulin glycation assay
Format: biochemical
Conditions: bovine insulin, D-glucose, 2 weeks incubation, mean ± SD, n = 3; read-out: IC50 D-Glucose-Induced Insulin Glycation
I'd be grateful if you could share measured IC50 for these entries.

Prompt line: Specify reported IC50 for the compound shown: `Oc1cc(O)cc(Oc2c(O)cc(O)c3c2Oc2c(O)cc(Oc4c(O)cc(Oc5c(O)cc(O)c6c5Oc5c(O)cc(O)cc5O6)cc4O)cc2O3)c1`
Response line: > 100 µM

Prompt line: Specify reported IC50 for the compound shown: `Oc1cc(O)cc(Oc2c(O)cc(O)c3c2Oc2c(O)cc(O)cc2O3)c1`
Response line: > 100 µM

Prompt line: Specify reported IC50 for the compound shown: `Oc1cc(O)cc(O)c1`
Response line: > 100 µM

Entry source: paper PMC6891666
